# targetUnderTest: T1, human IL-18BP (human, UniProt O95998 31-194)
# T1 construct: UniProt printed as 095998; also called hIL-18BP
# T1 sequence: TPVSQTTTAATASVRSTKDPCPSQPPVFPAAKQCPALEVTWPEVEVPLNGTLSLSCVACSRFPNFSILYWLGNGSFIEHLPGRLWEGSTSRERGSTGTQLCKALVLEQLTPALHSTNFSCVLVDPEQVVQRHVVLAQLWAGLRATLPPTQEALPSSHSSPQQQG
# measurementDescription: BLI, apparent KD
measurementName: Kd (nM)
Express the result in nM but write the number alone.

These solved cases illustrate the format of a correct answer.
>  <binder>
SA301a HC-V100aL (antibody, name in Kabat numbering, V domains shown, IgG1 kappa) VH: QVQLQESGPGLVKPSQTLSLTCTVSGYSITSDYNSHWIRQPPGKGLEWIGYIHYSGSTNYNPSLKSRVTISRDTSKNQFSLKLSSVTAADTAVYYCARNYGSIYLNYFDYWGQGTLVTVSS VL: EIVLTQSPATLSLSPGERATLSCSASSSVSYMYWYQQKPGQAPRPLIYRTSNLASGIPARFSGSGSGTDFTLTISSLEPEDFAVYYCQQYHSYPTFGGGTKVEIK

>  <Kd / nM>
2.54

$$$$
>  <binder>
SA301a HC-V100aA (antibody, name in Kabat numbering, V domains shown, IgG1 kappa) VH: QVQLQESGPGLVKPSQTLSLTCTVSGYSITSDYNSHWIRQPPGKGLEWIGYIHYSGSTNYNPSLKSRVTISRDTSKNQFSLKLSSVTAADTAVYYCARNYGSIYANYFDYWGQGTLVTVSS VL: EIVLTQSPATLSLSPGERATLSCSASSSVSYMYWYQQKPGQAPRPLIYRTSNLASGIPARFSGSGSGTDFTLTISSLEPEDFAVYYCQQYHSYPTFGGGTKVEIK

>  <Kd / nM>
0.47

$$$$

Here is the next item to consider.
## Input Answer with the recorded Kd of SA301a HC-Y100F (antibody, V domains shown) VH: QVQLQESGPGLVKPSQTLSLTCTVSGYSITSDYNSHWIRQPPGKGLEWIGYIHYSGSTNYNPSLKSRVTISRDTSKNQFSLKLSSVTAADTAVYYCARNYGSIFVNYFDYWGQGTLVTVSS VL: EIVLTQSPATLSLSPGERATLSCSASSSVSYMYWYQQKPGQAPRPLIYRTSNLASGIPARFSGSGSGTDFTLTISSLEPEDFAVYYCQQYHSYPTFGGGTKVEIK only.
## Output 0.1
